Target: T1, ExoI Arg338Ala variant (Escherichia coli, UniProt P04995 1-475)
T1 construct: basic ridge residue; also called R338A; Arg338 variant
T1 sequence: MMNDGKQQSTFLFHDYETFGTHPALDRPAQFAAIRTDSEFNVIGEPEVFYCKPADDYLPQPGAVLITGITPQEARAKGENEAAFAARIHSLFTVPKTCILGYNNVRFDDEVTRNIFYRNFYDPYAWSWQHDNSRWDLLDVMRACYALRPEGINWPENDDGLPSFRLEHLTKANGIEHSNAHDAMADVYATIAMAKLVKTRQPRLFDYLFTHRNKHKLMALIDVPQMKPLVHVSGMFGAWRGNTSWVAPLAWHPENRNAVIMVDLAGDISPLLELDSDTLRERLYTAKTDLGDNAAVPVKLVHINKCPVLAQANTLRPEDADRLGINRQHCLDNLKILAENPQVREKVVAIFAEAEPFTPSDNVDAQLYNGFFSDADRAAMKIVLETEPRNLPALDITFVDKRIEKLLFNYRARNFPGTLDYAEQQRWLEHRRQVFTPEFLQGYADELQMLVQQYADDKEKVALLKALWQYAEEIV
Experiment: fluorescence anisotropy equilibrium binding (Kd,app), ExoI variant titrated into fluorescein-labeled peptide
Where no end group is shown, it is not given here. fluorescein = fluorescein moiety attached to the N-terminus of the peptide (N-terminal fluorescein label)
value_kind: pKd
Just the number, please; pKd means minus log10 of the concentration in mol/L.

Record fluorescein-WMDFDDDIPF (also called F-SSB-Ct; F-WT) [fluorescein-labeled SSB C-terminal peptide (fluorescein-WMDFDDDIPF)] , field pKd: 6.40
